Target: T1, human GIP receptor (human, UniProt P48546 22-466)
T1 sequence (looked up): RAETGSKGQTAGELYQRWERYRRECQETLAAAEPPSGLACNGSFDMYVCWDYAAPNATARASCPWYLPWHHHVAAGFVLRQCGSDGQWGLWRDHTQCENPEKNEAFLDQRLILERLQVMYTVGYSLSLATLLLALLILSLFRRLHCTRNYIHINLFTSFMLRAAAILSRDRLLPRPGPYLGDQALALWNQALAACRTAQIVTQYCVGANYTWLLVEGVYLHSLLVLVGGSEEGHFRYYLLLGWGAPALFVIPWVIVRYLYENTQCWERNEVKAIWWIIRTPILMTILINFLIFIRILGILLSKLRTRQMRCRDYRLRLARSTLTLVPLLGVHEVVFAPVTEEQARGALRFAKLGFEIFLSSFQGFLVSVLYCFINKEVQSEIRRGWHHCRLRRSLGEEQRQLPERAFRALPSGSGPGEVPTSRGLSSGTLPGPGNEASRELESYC
Assay: cell-based or functional assay
Parameter cAMP EC50 (1.0% HSA): see the listing below.

binder	cAMP EC50 (1.0% HSA) [nM]
YXEGTXTSDYXIXLDXIAQXEFIKXLIKGGPSSGAPPPS (Y-Aib-EGT-αMeF(2F)-TSDY-Aib-I-αMeL-LD-Orn-IAQ-Aib-EFIK((2-[2-(2-Amino-ethoxy)-ethoxy]-acetyl)2-(γ-Glu)-(10-(4-carboxyphenoxy)decanoyl))-αMeY-LIK((2-[2-(2-Amino-ethoxy)-ethoxy]-acetyl)2-(γ-Glu)-(10-(4-carboxyphenoxy)decanoyl))GGPSSGAPPPS-NH2) [Example 239]	5.46
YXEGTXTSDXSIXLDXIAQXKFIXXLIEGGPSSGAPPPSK (Y-Aib-EGT-αMeF(2F)-TSD-2Nal-SI-αMeL-LD-Orn-IAQ-Aib-K((2-[2-(2-Amino-ethoxy)-ethoxy]-acetyl)2-(γ-Glu)-CO-(CH2)12-CO2H)FI-(D-Glu)-αMeY-LIEGGPSSGAPPPSK((2-[2-(2-Amino-ethoxy)-ethoxyl-acetyl)2-(γ-Glu)-CO-(CH2)12-CO2H)-NH2) [Example 254]	16.8
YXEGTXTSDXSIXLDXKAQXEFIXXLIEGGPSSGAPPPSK (Y-Aib-EGT-αMeF(2F)-TSD-4Pal-SI-αMeL-LD-Orn-K((2-[2-(2-Amino-ethoxy)-ethoxy]-acetyl)2-(γ-Glu)-(11-(4-carboxyphenoxy)undecanoyl))AQ-Aib-EFI-(D-Glu)-αMeY-LIEGGPSSGAPPPSK((2-[2-(2-Amino-ethoxy)-ethoxy]-acetyl)2-(γ-Glu)-(11-(4-carboxyphenoxy)undecanoyl))-NH2) [Example 285]	1.28
YXEGTXTSDXXIXLDXIAQXKFIXXLIKGGPSSGAPPPS (Y-Aib-EGT-αMeF(2F)-TSD-4Pal-Aib-I-αMeL-LD-Orn-IAQ-Aib-K(2-[2-(2-Amino-ethoxy)-ethoxy]-acetyl)2-(γ-Glu)-(11-(4-carboxyphenoxy)undecanoyl)FI-(D-Glu)-αMeY-LIK((2-[2-(2-Amino-ethoxy)-ethoxy]-acetyl)2-(γ-Glu)-(11-(4-carboxyphenoxy)undecanoyl)GGPSSGAPPPS-NH2)) [Example 331]	8.31
YXEGTXTSDXXIXLDXIAQXKFIXXLIEGGPSSGAPPPSK (Y-Aib-EGT-αMeF(2F)-TSD-4Pal-Aib-I-αMeL-LD-Orn-IAQ-Aib-K((2-[2-(2-Amino-ethoxy)-ethoxy]-acetyl)-(γ-Glu)-CO-(CH2)12-CO2H)FI-(D-Glu)-αMeY-LIEGGPSSGAPPPSK((2-[2-(2-Amino-ethoxy)-ethoxy]-acetyl)-(γ-Glu)-CO-(CH2)12-CO2H)-NH2) [Example 341]	5.74
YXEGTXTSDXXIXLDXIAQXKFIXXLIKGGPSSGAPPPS (Y-Aib-EGT-αMeF(2F)-TSD-4Pal-Aib-I-αMeL-LD-Orn-IAQ-Aib-K((2-[2-(2-Amino-ethoxy)-ethoxy]-acetyl)2-(γ-Glu)-(10-(4-carboxyphenoxy)decanoyl))FI-(D-Glu)-αMeY-LIK((2-[2-(2-Amino-ethoxy)-ethoxy]-acetyl)2-(γ-Glu)-(10-(4-carboxyphenoxy)decanoyl))GGPSSGAPPPS-NH2) [Example 247]	4.24
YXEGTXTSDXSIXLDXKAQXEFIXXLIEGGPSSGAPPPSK (Y-Aib-EGT-αMeF(2F)-TSD-OMeY-SI-αMeL-LD-Orn-K((2-[2-(2-Amino-ethoxy)-ethoxy]-acetyl)2-(γ-Glu)-CO-(CH2)12-CO2H)AQ-Aib-EFI-(D-Glu)-αMeY-LIEGGPSSGAPPPSK((2-[2-(2-Amino-ethoxy)-ethoxy]-acetyl)2-(γ-Glu)-CO-(CH2)12-CO2H)-NH2) [Example 261]	2.28
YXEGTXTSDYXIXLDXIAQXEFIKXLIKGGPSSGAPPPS (Y-Aib-EGT-αMeF(2F)-TSDY-Aib-I-αMeL-LD-Orn-IAQ-Aib-EFIK((2-[2-(2-Amino-ethoxy)-ethoxy]-acetyl)2-(γ-Glu)-CO-(CH2)12-CO2H)-αMeY-LIK((2-[2-(2-Amino-ethoxy)-ethoxy]-acetyl)2-(γ-Glu)-CO-(CH2)12-CO2H)GGPSSGAPPPS-NH2) [Example 233]	6.08
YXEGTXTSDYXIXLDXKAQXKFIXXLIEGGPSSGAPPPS (Y-Aib-EGT-αMeF(2F)-TSDY-Aib-I-αMeL-LD-Orn-K((2-[2-(2-Amino-ethoxy)-ethoxy]-acetyl)2-(γ-Glu)-CO-(CH2)12-CO2H)AQ-Aib-K((2-[2-(2-Amino-ethoxy)-ethoxy]-acetyl)2-(γ-Glu)-CO-(CH2)12-CO2H)FI-(D-Glu)-αMeY-LIEGGPSSGAPPPS-NH2) [Example 230]	2.57
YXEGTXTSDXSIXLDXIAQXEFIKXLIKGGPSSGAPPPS (Y-Aib-EGT-αMeF(2F)-TSD-4Pa1-SI-αMeL-LD-Orn-IAQ-Aib-EFIK((2-[2-(2-Amino-ethoxy)-ethoxy]-acetyl)2-(γ-Glu)-(10-(4-carboxyphenoxy)decanoyl))-αMeY-LIK((2-[2-(2-Amino-ethoxy)-ethoxy]-acetyl)2-(γ-Glu)-(10-(4-carboxyphenoxy)decanoyl))GGPSSGAPPPS-NH2) [Example 274]	1.16
YXEGTXTSDXSIXLDXKAQXXFIXXLIKGGPSSGAPPPS (Y-Aib-EGT-αMeF(2F)-TSD-4Pal-SI-αMeL-LD-Orn-K((2-[2-(2-Amino-ethoxy)-ethoxy]-acetyl)2-(γ-Glu)-CO-(CH2)10-CH3)AQ-Aib-Orn-FI-(D-Glu)-αMeY-LIK((2-[2-(2-Amino-ethoxy)-ethoxy]-acetyl)2-(γ-Glu)-CO-(CH2)10-CH3)GGPSSGAPPPS-NH2) [Example 299]	0.204
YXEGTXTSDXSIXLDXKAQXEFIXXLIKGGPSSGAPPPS (Y-Aib-EGT-αMeF(2F)-TSD-hTyr-SI-αMeL-LD-Orn-K((2-[2-(2-Amino-ethoxy)-ethoxy]-acetyl)2-(γ-Glu)-CO-(CH2)10-CH3)AQ-Aib-EFI-(D-Glu)-αMeY-LIK((2-[2-(2-Amino-ethoxy)-ethoxy]-acetyl)2-(γ-Glu)-CO-(CH2)10-CH3)GGPSSGAPPPS-NH2) [Example 335]	1.04
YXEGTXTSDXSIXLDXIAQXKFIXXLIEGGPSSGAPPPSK (Y-Aib-EGT-αMeF(2F)-TSD-2Nal-SI-αMeL-LD-Orn-IAQ-Aib-K((2-[2-(2-Amino-ethoxy)-ethoxy]-acetyl)2-CO-(CH2)12-CO2H)Fl-(D-Glu)-αMeY-LIEGGPSSGAPPPSK((2-[2-(2-Amino-ethoxy)-ethoxy]-acetyl)2-CO-(CH2)12-CO2H)-NH2) [Example 258]	5.28
